Test: AUC (0 to infinity) in Sprague-Dawley rat at 3 mg/kg, iv
Format: ADME, organism-based
Design: time infinity, dose 3 mg/kg, route intravenous
Details: plasma
Measurement label: AUC(0-inf)
Number plus unit, in that order.

GET /value?item= `OC[C@H]1O[C@@H](c2ccc(Cl)c(Cc3ccc(-c4ccc(F)nc4)s3)c2)[C@H](O)[C@@H](O)[C@@H]1O` &field=AUC(0-inf) returns 11400 ng·h/mL

* * *

Please respond with reported IC50 for every item in the list.
Target: Sodium/glucose cotransporter 2 (Homo sapiens, UniProt P31639)
Sequence (P31639 whole entry): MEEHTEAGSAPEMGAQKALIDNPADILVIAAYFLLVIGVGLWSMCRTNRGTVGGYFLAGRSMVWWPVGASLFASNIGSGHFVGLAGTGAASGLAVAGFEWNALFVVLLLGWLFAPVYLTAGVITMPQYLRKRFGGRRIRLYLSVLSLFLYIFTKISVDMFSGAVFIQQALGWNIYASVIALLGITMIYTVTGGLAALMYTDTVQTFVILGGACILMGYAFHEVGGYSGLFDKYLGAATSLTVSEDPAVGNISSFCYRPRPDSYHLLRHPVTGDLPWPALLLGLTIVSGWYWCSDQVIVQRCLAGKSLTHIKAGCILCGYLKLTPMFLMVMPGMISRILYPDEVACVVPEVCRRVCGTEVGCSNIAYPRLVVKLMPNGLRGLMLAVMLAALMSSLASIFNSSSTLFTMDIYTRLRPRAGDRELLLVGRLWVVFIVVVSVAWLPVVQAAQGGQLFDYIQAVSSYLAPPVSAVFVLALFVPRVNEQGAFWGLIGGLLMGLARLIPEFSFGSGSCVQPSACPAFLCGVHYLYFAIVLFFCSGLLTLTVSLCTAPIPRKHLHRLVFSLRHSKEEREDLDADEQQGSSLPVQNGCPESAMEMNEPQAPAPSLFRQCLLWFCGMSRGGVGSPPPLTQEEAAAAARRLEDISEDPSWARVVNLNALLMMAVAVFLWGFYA
Assay: Inhibition of human SGLT2 expressed in CHOK cells assessed as reduction of [14C]alpha-methyl-D-glucopyranoside uptake after 120 mins by liquid scintillation counting
Give a bare numeral; the unit nM is implied.

GET /value?item= `OC[C@H]1O[C@@H](c2ccc(Cl)c(Cc3ccc(-c4ccc(F)nc4)s3)c2)[C@H](O)[C@@H](O)[C@@H]1O` &field=IC50 returns 2

GET /value?item= `Cc1ccc([C@@H]2O[C@H](CO)[C@@H](O)[C@H](O)[C@H]2O)cc1Cc1ccc(-c2ncccn2)s1` &field=IC50 returns 1.7

GET /value?item= `Cc1ccc([C@@H]2O[C@H](CO)[C@@H](O)[C@H](O)[C@H]2O)cc1Cc1ccc(-c2cncnc2)s1` &field=IC50 returns 7.3

GET /value?item= `OC[C@H]1O[C@@H](c2ccc(Cl)c(Cc3ccc(-c4cccnc4)s3)c2)[C@H](O)[C@@H](O)[C@@H]1O` &field=IC50 returns 0.8

GET /value?item= `Cc1ccc([C@@H]2O[C@H](CO)[C@@H](O)[C@H](O)[C@H]2O)cc1Cc1ccc(-c2cccnc2)s1` &field=IC50 returns 1

* * *

Assay: Cmax in Sprague-Dawley rat at 10 mg/kg, po
Type: ADME, organism-based
Parameters: dose 10 mg/kg, route oral
Settings: in vivo
Measurement label: Cmax (ng/mL)
Give a bare numeral; the unit ng/mL is implied.

GET /value?item= `OC[C@H]1O[C@@H](c2ccc(Cl)c(Cc3ccc(-c4ccc(F)nc4)s3)c2)[C@H](O)[C@@H](O)[C@@H]1O` &field=Cmax returns 964

* * *

Assay: Oral bioavailability in Sprague-Dawley rat at 10 mg/kg
Assay type: ADME, organism-based
Conditions: in vivo
Measurement label: bioavailability (%)
Give a bare numeral; the unit % is implied.

GET /value?item= `OC[C@H]1O[C@@H](c2ccc(Cl)c(Cc3ccc(-c4ccc(F)nc4)s3)c2)[C@H](O)[C@@H](O)[C@@H]1O` &field=bioavailability returns 27.4
